B1: LINE1-full (parent)
chain: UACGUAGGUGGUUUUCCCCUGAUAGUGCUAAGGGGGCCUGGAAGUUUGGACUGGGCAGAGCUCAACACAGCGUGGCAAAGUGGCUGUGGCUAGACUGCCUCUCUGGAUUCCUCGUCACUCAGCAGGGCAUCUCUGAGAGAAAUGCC

- Variants of: B1
- ASSAY OVERVIEW: self-cleavage, relative activity (ratio to wild type); higher = more cleavage; in vitro, sequencing; the parent is a self-cleaving ribozyme
Kindly return Met if reported self-cleavage is no lower than 0.9; return Not met if it is lower.

UACGUAGGUGGUUUUCCCCUGAUAGUGCUAAGGGGGCCCGGAAGUUUGGACUGGGCAGAGCUCAACACAGCGUGGUAAAGUGGCUGUGGCUAGACUGCCUCUCUGGAUUCCUCGUCACUCAGCAGGGCAUCUCUGAGAGAAAUGCC : Not met
UACGUAGGUGGUUUUCCCCUGAUAGUGCUAAGGGGGCCUGGAAGUUUGGACUGGGCAGAGCCCAACACAGCGUGGCAAAGUGGCUGUGGCUAGACUGCCUCUCUGGAUUCCUCGUCUCUCAGCAGGGCAUCUCUGAGAGAAAUGCC : Not met

q: Has UACGUAGGUGGUUAUCCCCUGAUAGUGUUAAGGGGGCCUGGAAGUUUGGACUGGGCAGAGCUCAACACAGCGUGGCAAAGUGGCUGUGGCUAGACUGCCUCUCUGGAUUCCUCGUCACUCAGCAGGGCAUCUCUGAGAGAAAUGCC a recorded self-cleavage greater than or equal to 0.9?
a: Not met

q: Has UACGUAGGUGGGUUUCCCCUGAUAGUGCUAAGGGGGCCUGGAAGUUUGGACUGGGCAGAGCUCAACACAGCGUGGCAAGGUGGCUGUGGCUAGACUGCCUCUCUGGAUUCCUCGUCACUCAGCAGGGCAUCUCUGAGAGAAAUGCC a recorded self-cleavage greater than or equal to 0.9?
a: Met

From: the RNAGym collection of RNA variant scans (doi:10.7554/elife.90254)
